organism: Rattus norvegicus; experiment: Inhibition of rat recombinant Rab geranylgeranyltransferase at 100 uM in presence of canine Rab7 and rat REP1 NBD-FPP based continuous fluorimetric assay
Peptide text beside a SMILES is read from it. * marks the point of attachment. Undecanoyl = CCCCCCCCCCC(=O)*; NHOH = ON*
recordedEndpoint: inhibition (%)

molecule	unitSpec	inhibition
C[C@@H](O)[C@H](NC(=O)/C=C/c1ccccc1)C(=O)N[C@@H](Cc1ccccc1)C(=O)N[C@@H](CCC(N)=O)C(N)=O	%	78
CCC(C)OC(=O)[C@H](CCC(N)=O)NC(=O)[C@H](Cc1ccccc1)NC(=O)[C@@H](C)NC(=O)CCc1ccccc1 (stereo partly drawn)	%	83

A: CCCCCc1ccc(CCC(=O)N[C@H](Cc2cnc[nH]2)C(=O)N[C@@H](Cc2ccc(O)cc2)C(=O)N[C@@H](Cc2ccccc2)C(=O)O)cc1
B: CC(=O)Nc1cc(C(=O)N2CCC[C@H]2C(=O)N[C@@H](C(=O)N[C@@H](CCC(=O)O)C(=O)NC2CCCCC2)C(C)C)ccc1[N+](=O)[O-]
C: CCCCCc1ccc(/C=C/C(=O)N[C@H](Cc2cnc[nH]2)C(=O)N[C@@H](Cc2ccc(O)cc2)C(=O)N[C@@H](Cc2ccccc2)C(=O)O)cc1
D: NC(=O)CC[C@H](NC(=O)[C@H](Cc1ccccc1)NC(=O)CNC(=O)CCc1ccccc1)C(=O)NC1CCCCC1
Problem: Please list these in order of increasing inhibition. Thank you! Hello, could you send the labels back in the order asked? Thank you.
Solution: A, C, D, B

a: CCCCCCCCCCC(=O)N[C@@H](Cc1c[nH]cn1)C(=O)N[C@@H](Cc1ccccc1)C(=O)N[C@@H](Cc1ccc(O)cc1)C(=O)NO (Undecanoyl-His-Phe-Tyr-{NHOH})
b: O=C(CCc1ccc(-c2ccccc2)cc1)N[C@H](Cc1cnc[nH]1)C(=O)N[C@@H](Cc1ccc(O)cc1)C(=O)N[C@@H](Cc1ccccc1)C(=O)O
Problem: Between a and b , which one has the lower reported inhibition value? Bench note: the answer is the label of the chosen record.
Solution: b

----------
species: Rattus norvegicus; experiment: Inhibition of rat recombinant Rab geranylgeranyltransferase at 100 uM in presence of canine Rab7 and rat REP1 NBD-FPP based continuous fluorimetric assay
recordedEndpoint: inhibition (%)

CCCCCCCCCCCCCC(=O)OC[C@H](NC(=O)[C@@H]1CCCN1C(=O)[C@H](CCC(N)=O)NC(=O)c1coc(-c2ccccc2)n1)C(=O)O 36
O=C(CNC(=O)[C@H](Cc1cn(C(c2ccccc2)(c2ccccc2)c2ccccc2)cn1)NC(=O)c1coc(-c2ccccc2)n1)N[C@@H](Cc1cn(C(c2ccccc2)(c2ccccc2)c2ccccc2)cn1)C(=O)O 95
O=C(CNC(=O)[C@H](Cc1ccc(O)cc1)NC(=O)c1coc(-c2ccccc2)n1)N[C@@H](Cc1ccccc1)C(=O)O 65
O=C(CCNC(=O)[C@H](Cc1c[nH]cn1)NC(=O)OCc1ccccc1)N[C@@H](Cc1ccc(O)cc1)C(=O)O 90

A: COC(=O)[C@H](CCC(N)=O)NC(=O)[C@H](Cc1ccccc1)NC(=O)[C@@H](NC(=O)/C=C/c1ccccc1)[C@@H](C)O
B: O=C(N[C@@H](Cc1cnc[nH]1)C(=O)N[C@@H](Cc1ccccc1)C(=O)N[C@@H](Cc1ccc(O)cc1)C(=O)O)OCc1ccc([N+](=O)[O-])cc1
Problem: Could you determine which record has the numerically smaller inhibition? Candidates: A and B Refer to your chosen item by its label in the answer.
Solution: B
(B: 61%, A: 92%)

----------
Reported IC50 values for a set of compounds
experiment: Inhibition of rat recombinant Rab geranylgeranyltransferase iin presence of canine Rab7 and rat REP1 by NBD-FPP based continuous fluorimetric assay

// worked examples, IC50 included
O=C(CNC(=O)[C@H](Cc1c[nH]cn1)NC(=O)c1coc(-c2ccccc2)n1)N[C@@H](Cc1c[nH]cn1)C(=O)O > 50 µM
CC(C)(C)OC(=O)n1cnc(C[C@H](NC(=O)[C@H](Cc2ccccc2)NC(=O)CNC(=O)c2coc(-c3ccccc3)n2)C(=O)O)c1 > 50 µM

Problem: Look up and report measured IC50 for this entry: O=C(CNC(=O)[C@H](Cc1cn(C(c2ccccc2)(c2ccccc2)c2ccccc2)cn1)NC(=O)c1coc(-c2ccccc2)n1)N[C@@H](Cc1c[nH]cn1)C(=O)O
Solution: 38 µM

----------
organism: Rattus norvegicus; assay: Inhibition of rat recombinant Rab geranylgeranyltransferase at 100 uM in presence of canine Rab7 and rat REP1 NBD-FPP based continuous fluorimetric assay
Peptide text beside a SMILES is read from it. * marks the point of attachment. Cbz = O=C(OCc1ccccc1)*
recordedEndpoint: inhibition (%)

molecule	recordedEndpoint	measured
O=C(CNC(=O)[C@H](Cc1c[nH]cn1)NC(=O)OCc1ccccc1)N[C@@H](Cc1ccc(O)cc1)C(=O)O (Cbz-His-Gly-Tyr-OH)	inhibition	75
CCCCCCCCCCC(=O)NC(Cc1ccc(O)cc1)C(=O)N[C@@H](Cc1c[nH]cn1)C(=O)N[C@@H](Cc1c[nH]cn1)C(=O)NCC(O)CO (stereo not given in full)	inhibition	89
C[C@@H](O)[C@H](NC(=O)C(Br)C(Br)c1ccccc1)C(=O)N[C@@H](Cc1ccccc1)C(=O)N[C@@H](CCC(N)=O)C(=O)Nc1nccs1 (stereo not given in full)	inhibition	93
COC(=O)[C@H](Cc1ccc(O)cc1)NC(=O)[C@H](Cc1ccc(O)cc1)NC(=O)[C@H](Cc1ccc(O)cc1)NC(=O)c1ccc(F)cc1F	inhibition	79
O=C(N[C@@H](Cc1ccc(O)cc1)C(=O)N[C@@H](Cc1ccc(O)cc1)C(=O)N[C@@H](Cc1ccc(O)cc1)C(=O)NCc1ccccc1)c1ccc(F)cc1F	inhibition	70

----------
species on record: Rattus norvegicus; test: Inhibition of rat recombinant Rab geranylgeranyltransferase at 100 uM in presence of canine Rab7 and rat REP1 NBD-FPP based continuous fluorimetric assay
Peptide text beside a SMILES is read from it. * marks the point of attachment. Hydrocinnamoyl = O=C(CCc1ccccc1)*; Morpholide = C1CN(*)CCO1
recordedEndpoint: inhibition (%)

molecule	inhibition / %
O=C(CNC(=O)c1csc(-c2ccccc2)n1)N[C@@H](Cc1ccccc1)C(=O)N[C@@H](Cc1cn(C(c2ccccc2)(c2ccccc2)c2ccccc2)cn1)C(=O)O	71
CC(C)CCNC(=O)[C@H](Cc1ccccc1)NC(=O)CNC(=O)[C@@H]1CCCN1C(=O)/C=C/c1ccccc1	80
C=CCOC(=O)[C@H](Cc1ccccc1)N(C)C(=O)[C@H](Cc1ccc(OC)cc1)N(C)C(=O)[C@@H](Cc1ccc(O)cc1)NC(=O)CCc1ccccc1	74
CCCCCCCCCCCOc1ccc(C(=O)N[C@@H](Cc2c[nH]cn2)C(=O)N[C@@H](Cc2c[nH]cn2)C(=O)N[C@@H](Cc2c[nH]cn2)C(=O)OCCN)cc1	101

I: O=C(CCc1ccccc1)N[C@@H](CO)C(=O)NCC(=O)N[C@@H](CO)C(=O)N1CCOCC1 (Hydrocinnamoyl-Ser-Gly-Ser-Morpholide)
II: CCCCCCCCCCC(=O)N[C@@H](Cc1ccc(O)cc1)C(=O)N[C@@H](Cc1cnc[nH]1)C(=O)N[C@@H](Cc1ccc(O)cc1)C(=O)NCCCn1ccnc1
Problem: Which value of inhibition is numerically greater: that of I or that of II ? Reply with the label of the item you choose.
Solution: I

----------
species on record: Rattus norvegicus; assay: Inhibition of rat recombinant Rab geranylgeranyltransferase at 100 uM in presence of canine Rab7 and rat REP1 NBD-FPP based continuous fluorimetric assay
Peptide text beside a SMILES is read from it. * marks the point of attachment. Hydrocinnamoyl = O=C(CCc1ccccc1)*; NHPh = c1ccc(N*)cc1
recordedEndpoint: inhibition (%)

P: NC(=O)CC[C@H](NC(=O)[C@H](Cc1ccccc1)NC(=O)[C@H](CO)NC(=O)CCc1ccccc1)C(=O)Nc1ccccc1 (Hydrocinnamoyl-Ser-Phe-Gln-NHPh)
Q: COc1ccc(C[C@@H](C(=O)N(C)[C@@H](Cc2ccccc2)C(=O)OCC(=O)O)N(C)C(=O)[C@@H](Cc2ccc(O)cc2)NC(=O)CCc2ccccc2)cc1
Problem: Record comparison, field inhibition: mark the lower of P and Q . Indicate which entry you chose by stating its label.
Solution: Q

1: CCCCCCCCCCCOc1ccc(C(=O)N[C@@H](Cc2ccc(O)cc2)C(=O)N[C@@H](Cc2ccc(O)cc2)C(=O)N[C@@H](Cc2ccc(O)cc2)C(=O)N(C)OC)cc1
2: C=CCCCCCCCCCOC(=O)[C@H](CC(C)C)NC(=O)[C@H](COC(C)(C)C)NC(=O)[C@H](Cc1ccccc1)NC(=O)CCc1ccccc1
Problem: From the items above, decide which of 1 and 2 has the lower inhibition reading. // caller expects the label of the chosen entry
Solution: 1
(1: 75%, 2: 108%)

----------
species: Rattus norvegicus; assay: Inhibition of rat recombinant Rab geranylgeranyltransferase at 100 uM in presence of canine Rab7 and rat REP1 NBD-FPP based continuous fluorimetric assay
Peptide text beside a SMILES is read from it. * marks the point of attachment. Hydrocinnamoyl = O=C(CCc1ccccc1)*; Undecanoyl = CCCCCCCCCCC(=O)*; NHPh = c1ccc(N*)cc1
recordedEndpoint: inhibition (%)

compound	unitSpec	inhibition
O=C(CNC(=O)c1coc(-c2ccccc2)n1)N[C@@H](Cc1cn(C(c2ccccc2)(c2ccccc2)c2ccccc2)cn1)C(=O)N[C@@H](Cc1cn(C(c2ccccc2)(c2ccccc2)c2ccccc2)cn1)C(=O)O	%	91
CCCCCCCCCCCNC(=O)[C@H](Cc1ccc(O)cc1)NC(=O)CNC(=O)[C@H](Cc1ccc(O)cc1)NC(=O)CCc1ccc(F)cc1	%	88
COC(=O)[C@H](Cc1ccccc1)NC(=O)CNC(=O)[C@@H]1CCCN1C(=O)/C=C/c1ccccc1	%	89
O=C(CCc1ccccc1)N[C@@H](CO)C(=O)N[C@@H](Cc1ccccc1)C(=O)N[C@@H](CO)C(=O)Nc1ccccc1 (Hydrocinnamoyl-Ser-Phe-Ser-NHPh)	%	89
C[C@H](NC(=O)[C@@H](NC(=O)c1ccc(-c2ccccc2)cc1)[C@@H](C)O)C(=O)N[C@@H](CCC(=O)O)C(=O)NN	%	89
CCCCCCCCCCC(=O)N[C@@H](Cc1c[nH]cn1)C(=O)N[C@@H](Cc1ccccc1)C(=O)N[C@@H](Cc1ccc(O)cc1)C(=O)O (Undecanoyl-His-Phe-Tyr-OH)	%	70
COC(=O)[C@H](Cc1ccc(O)cc1)NC(=O)CCNC(=O)[C@H](Cc1c[nH]cn1)NC(=O)OCc1ccccc1	%	72

These data points were gathered from ChEMBL document CHEMBL1153722.
